# pIC50 per entry
Biological target: human (hACC2) (Homo sapiens)
Sequence (O00763 whole entry): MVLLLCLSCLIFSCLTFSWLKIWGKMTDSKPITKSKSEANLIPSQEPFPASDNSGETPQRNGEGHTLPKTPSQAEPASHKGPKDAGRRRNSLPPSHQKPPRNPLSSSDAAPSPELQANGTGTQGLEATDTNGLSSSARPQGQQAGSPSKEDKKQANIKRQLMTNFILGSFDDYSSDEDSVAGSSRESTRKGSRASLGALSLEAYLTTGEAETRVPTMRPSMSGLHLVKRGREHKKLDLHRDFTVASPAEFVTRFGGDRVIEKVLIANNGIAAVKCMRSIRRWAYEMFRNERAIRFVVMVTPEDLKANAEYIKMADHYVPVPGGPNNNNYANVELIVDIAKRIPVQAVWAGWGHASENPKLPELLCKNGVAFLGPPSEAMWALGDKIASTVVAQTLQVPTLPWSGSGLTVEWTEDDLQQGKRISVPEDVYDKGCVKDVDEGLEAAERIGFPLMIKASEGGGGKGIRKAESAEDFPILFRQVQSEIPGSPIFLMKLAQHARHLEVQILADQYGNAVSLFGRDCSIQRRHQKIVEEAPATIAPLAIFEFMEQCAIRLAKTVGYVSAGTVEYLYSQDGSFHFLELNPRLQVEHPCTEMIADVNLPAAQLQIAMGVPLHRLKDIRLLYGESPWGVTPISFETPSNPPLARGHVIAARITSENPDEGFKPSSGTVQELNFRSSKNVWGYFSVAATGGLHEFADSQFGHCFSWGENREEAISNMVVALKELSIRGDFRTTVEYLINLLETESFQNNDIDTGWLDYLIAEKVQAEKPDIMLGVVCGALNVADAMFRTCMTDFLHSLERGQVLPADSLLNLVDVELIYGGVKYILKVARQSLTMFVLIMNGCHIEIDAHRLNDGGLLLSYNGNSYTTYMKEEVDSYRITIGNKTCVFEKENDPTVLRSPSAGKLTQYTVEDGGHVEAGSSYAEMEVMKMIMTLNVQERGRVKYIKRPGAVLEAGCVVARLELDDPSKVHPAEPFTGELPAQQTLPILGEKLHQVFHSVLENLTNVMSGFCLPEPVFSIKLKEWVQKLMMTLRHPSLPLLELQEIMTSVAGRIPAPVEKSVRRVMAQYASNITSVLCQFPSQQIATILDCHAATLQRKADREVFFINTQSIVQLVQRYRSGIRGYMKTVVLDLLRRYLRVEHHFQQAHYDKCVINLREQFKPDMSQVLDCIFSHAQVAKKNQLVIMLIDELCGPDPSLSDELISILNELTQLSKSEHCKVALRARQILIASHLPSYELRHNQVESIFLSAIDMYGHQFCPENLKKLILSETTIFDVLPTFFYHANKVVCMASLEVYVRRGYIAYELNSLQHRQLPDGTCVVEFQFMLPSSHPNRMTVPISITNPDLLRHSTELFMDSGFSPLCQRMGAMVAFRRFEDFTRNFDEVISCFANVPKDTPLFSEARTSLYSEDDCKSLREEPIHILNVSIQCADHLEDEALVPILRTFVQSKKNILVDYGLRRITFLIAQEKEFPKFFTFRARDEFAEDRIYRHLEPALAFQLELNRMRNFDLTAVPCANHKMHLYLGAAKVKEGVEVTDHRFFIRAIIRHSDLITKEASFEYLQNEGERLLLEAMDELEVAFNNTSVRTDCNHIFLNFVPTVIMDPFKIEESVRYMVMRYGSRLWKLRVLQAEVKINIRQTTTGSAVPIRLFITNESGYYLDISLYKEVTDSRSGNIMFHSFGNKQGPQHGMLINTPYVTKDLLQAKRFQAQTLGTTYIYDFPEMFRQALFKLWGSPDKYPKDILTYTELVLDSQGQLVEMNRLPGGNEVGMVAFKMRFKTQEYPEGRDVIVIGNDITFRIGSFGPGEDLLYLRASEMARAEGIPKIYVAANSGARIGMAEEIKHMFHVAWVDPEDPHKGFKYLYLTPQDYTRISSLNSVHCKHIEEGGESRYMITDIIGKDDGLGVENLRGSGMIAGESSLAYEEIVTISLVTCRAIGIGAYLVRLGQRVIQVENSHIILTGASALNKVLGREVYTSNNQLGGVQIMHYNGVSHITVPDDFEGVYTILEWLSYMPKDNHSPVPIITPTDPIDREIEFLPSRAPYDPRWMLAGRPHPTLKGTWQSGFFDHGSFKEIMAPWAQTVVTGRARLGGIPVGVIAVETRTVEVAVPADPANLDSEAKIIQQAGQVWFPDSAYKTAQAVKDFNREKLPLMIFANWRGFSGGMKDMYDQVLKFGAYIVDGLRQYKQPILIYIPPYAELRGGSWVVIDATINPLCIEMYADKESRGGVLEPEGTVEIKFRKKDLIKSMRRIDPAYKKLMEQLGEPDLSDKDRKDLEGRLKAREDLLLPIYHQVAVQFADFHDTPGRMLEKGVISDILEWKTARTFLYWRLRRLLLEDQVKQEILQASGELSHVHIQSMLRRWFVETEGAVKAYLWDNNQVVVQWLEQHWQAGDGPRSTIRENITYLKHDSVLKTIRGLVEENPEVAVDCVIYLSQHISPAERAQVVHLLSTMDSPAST
Assay: In vitro ACC inhibition assay (ADP-Glo), hACC2
Format: biochemical
Conditions: Table 2a, 5 nM ACC2, 20 μM ATP, 20 μM acetyl-CoA
Method: The detailed procedure is as follows. […] 10 μL ADP glo reagent was added. […] 20 μL kinase detection reagent was added.
pIC50: −log10 of the molar value.
MEASURED_METRIC: pIC50

{"MOLECULE": "COc1ccc(F)cc1[C@H](Cn1c(=O)n(C(C)(C)C(N)=O)c(=O)c2c(C)c(-n3nccn3)sc21)OCC(C)C [Compound I-8]", "VALUE_OBSERVED": "8.00 to 8.30"}
{"MOLECULE": "COCCO[C@@H](Cn1c(=O)n(C(C)(C)C(=O)NC2CCC2)c(=O)c2c(C)c(-n3nccn3)sc21)c1cc(F)ccc1OC [Compound I-134]", "VALUE_OBSERVED": "8.00 to 8.30"}
{"MOLECULE": "COc1ccccc1[C@H](Cn1c(=O)n(C(C)(C)C(=O)N2CC(O)C2)c(=O)c2c(C)c(-n3nccn3)sc21)OC1CCOCC1 [Compound I-19]", "VALUE_OBSERVED": "7.40 to 8.00"}
{"MOLECULE": "COCCO[C@@H](Cn1c(=O)n(CC(=O)NC(C)C)c(=O)c2c(C)c(-n3nccn3)sc21)c1cc(F)ccc1OC [Compound I-80]", "VALUE_OBSERVED": "< 7.40"}
{"MOLECULE": "Cc1c(-n2nccn2)sc2c1c(=O)n(C(C)(C)C(=O)NC(C)C)c(=O)n2C[C@H](OC(C)C)c1cc(F)ccc1OCC1COC1 [Compound I-55]", "VALUE_OBSERVED": "7.40 to 8.00"}
{"MOLECULE": "COc1ccc(F)cc1[C@H](Cn1c(=O)n([C@@H](C)C(=O)NC(C)C)c(=O)c2c(C)c(-n3nccn3)sc21)OCC(C)(C)O [Compound I-172]", "VALUE_OBSERVED": "8.00 to 8.30"}
{"MOLECULE": "COc1ccc(F)cc1[C@H](Cn1c(=O)n(C(C)(C)C(=O)N2CCCC2)c(=O)c2c(C)c(-n3nccn3)sc21)OC1CCC(=O)CC1 [Compound I-33]", "VALUE_OBSERVED": "7.40 to 8.00"}
{"MOLECULE": "CCNC(=O)C(C)(C)n1c(=O)c2c(C)c(-n3nccn3)sc2n(C[C@H](OC2CCOCC2)c2ccccc2OC)c1=O [Compound I-15]", "VALUE_OBSERVED": "8.30 to 9.00"}
{"MOLECULE": "COc1ccc(F)cc1[C@H](Cn1c(=O)n(C(C)(C)C(=O)N2CC(O)C2)c(=O)c2c(C)c(-n3nccn3)sc21)OC1CCOCC1 [Compound I-26]", "VALUE_OBSERVED": "7.40 to 8.00"}
{"MOLECULE": "COc1ccc(F)cc1[C@H](Cn1c(=O)n(C(C)(C)C(=O)NC(C)C)c(=O)c2c(C)c(-n3nccn3)sc21)OCC(C)(C)O [Compound I-57]", "VALUE_OBSERVED": "7.40 to 8.00"}
{"MOLECULE": "COc1ccc(F)cc1[C@H](Cn1c(=O)n(C(C)(C)C(=O)NC2CCCCC2)c(=O)c2c(C)c(-n3nccn3)sc21)OC1CCOCC1 [Compound I-28]", "VALUE_OBSERVED": "7.40 to 8.00"}
{"MOLECULE": "Cc1c(-n2nccn2)sc2c1c(=O)n(C(C)(C)C(=O)N1CCCC1)c(=O)n2C[C@H](OC1CCOCC1)c1cc(F)ccc1OCCO [Compound I-112]", "VALUE_OBSERVED": "8.30 to 9.00"}
{"MOLECULE": "COc1ccc(F)cc1[C@H](Cn1c(=O)n(CC(=O)N2CCCC2)c(=O)c2c(C)c(-n3nccn3)sc21)OC(C)C [Compound I-36]", "VALUE_OBSERVED": "8.30 to 9.00"}
{"MOLECULE": "Cc1c(-n2nccn2)sc2c1c(=O)n(C(C)(C)C(=O)NC(C)C)c(=O)n2C[C@H](OC1CCOCC1)c1cc(F)ccc1OCC1COC1 [Compound I-108]", "VALUE_OBSERVED": "8.30 to 9.00"}
{"MOLECULE": "COc1ccc(F)cc1[C@H](Cn1c(=O)n(C(C)(C)C(=O)N2CCOCC2)c(=O)c2c(C)c(-n3nccn3)sc21)OC(C)C [Compound I-5]", "VALUE_OBSERVED": "7.40 to 8.00"}
{"MOLECULE": "COc1ccc(F)cc1[C@H](Cn1c(=O)n(C(C)(C)C(N)=O)c(=O)c2c(C)c(-n3nccn3)sc21)OC1CCOCC1 [Compound I-1]", "VALUE_OBSERVED": "8.00 to 8.30"}
{"MOLECULE": "COc1ccc(F)cc1[C@H](Cn1c(=O)n(C(C)(C)C(=O)NC(C)C)c(=O)c2c(C)c(-n3nccn3)sc21)OCC(C)C [Compound I-10]", "VALUE_OBSERVED": "7.40 to 8.00"}
{"MOLECULE": "COCCO[C@@H](Cn1c(=O)n(C(C)(C)C(=O)OC(C)C)c(=O)c2c(C)c(-n3nccn3)sc21)c1cc(F)ccc1OC [Compound I-127]", "VALUE_OBSERVED": "7.40 to 8.00"}
{"MOLECULE": "COc1ccc(F)cc1[C@H](Cn1c(=O)n([C@@H](C)C(=O)NC(C)C)c(=O)c2c(C)c(-n3nccn3)sc21)OCCO [Compound I-88]", "VALUE_OBSERVED": "8.00 to 8.30"}
{"MOLECULE": "COc1ccc(F)cc1[C@H](Cn1c(=O)n([C@H](C)C(=O)NC(C)C)c(=O)c2c(C)c(-n3nccn3)sc21)OCCC#N [Compound I-138]", "VALUE_OBSERVED": "8.30 to 9.00"}
{"MOLECULE": "CCOC(=O)C(C)(C)n1c(=O)c2c(C)c(-n3nccn3)sc2n(C[C@H](OCCO)c2cc(F)ccc2OC)c1=O [Compound I-74]", "VALUE_OBSERVED": "8.00 to 8.30"}
{"MOLECULE": "COc1ccc(F)cc1[C@H](Cn1c(=O)n(C(C)(C)C(=O)NC(C)C)c(=O)c2c(C)c(-n3nccn3)sc21)OCCC(C)=O [Compound I-104]", "VALUE_OBSERVED": "8.30 to 9.00"}
{"MOLECULE": "COc1ccc(F)cc1[C@H](Cn1c(=O)n(C(C)(C)C(=O)N2CCCC2)c(=O)c2c(C)c(-n3nccn3)sc21)OC1CCOCC1 [Compound I-25]", "VALUE_OBSERVED": "8.00 to 8.30"}
{"MOLECULE": "COc1ccc(F)cc1[C@H](Cn1c(=O)n([C@H](C)C(=O)NC(C)C)c(=O)c2c(C)c(-n3nccn3)sc21)OCC(C)(C)O [Compound I-171]", "VALUE_OBSERVED": "7.40 to 8.00"}
{"MOLECULE": "COc1ccc(F)cc1[C@H](Cn1c(=O)n(C(C)(C)C(=O)N(C)C)c(=O)c2c(C)c(-n3nccn3)sc21)OC(C)C [Compound I-49]", "VALUE_OBSERVED": "7.40 to 8.00"}
